Value source: patent US10689378B2

- testSystem: wild type PRC2 (wtPRC2) complex (Homo sapiens)
- Sequence (O75530 whole entry): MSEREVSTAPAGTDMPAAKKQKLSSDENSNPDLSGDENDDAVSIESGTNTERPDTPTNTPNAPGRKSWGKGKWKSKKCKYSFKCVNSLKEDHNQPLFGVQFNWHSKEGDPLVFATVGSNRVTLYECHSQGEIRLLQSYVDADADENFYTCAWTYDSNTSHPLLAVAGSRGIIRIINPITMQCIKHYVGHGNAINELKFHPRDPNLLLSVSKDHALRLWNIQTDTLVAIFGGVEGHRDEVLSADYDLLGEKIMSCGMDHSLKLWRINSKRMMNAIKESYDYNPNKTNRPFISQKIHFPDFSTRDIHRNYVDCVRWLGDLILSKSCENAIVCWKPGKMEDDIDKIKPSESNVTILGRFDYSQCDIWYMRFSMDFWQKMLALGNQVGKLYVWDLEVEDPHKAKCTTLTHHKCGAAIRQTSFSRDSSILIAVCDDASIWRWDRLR
- Sequence (Q15910 whole entry partner): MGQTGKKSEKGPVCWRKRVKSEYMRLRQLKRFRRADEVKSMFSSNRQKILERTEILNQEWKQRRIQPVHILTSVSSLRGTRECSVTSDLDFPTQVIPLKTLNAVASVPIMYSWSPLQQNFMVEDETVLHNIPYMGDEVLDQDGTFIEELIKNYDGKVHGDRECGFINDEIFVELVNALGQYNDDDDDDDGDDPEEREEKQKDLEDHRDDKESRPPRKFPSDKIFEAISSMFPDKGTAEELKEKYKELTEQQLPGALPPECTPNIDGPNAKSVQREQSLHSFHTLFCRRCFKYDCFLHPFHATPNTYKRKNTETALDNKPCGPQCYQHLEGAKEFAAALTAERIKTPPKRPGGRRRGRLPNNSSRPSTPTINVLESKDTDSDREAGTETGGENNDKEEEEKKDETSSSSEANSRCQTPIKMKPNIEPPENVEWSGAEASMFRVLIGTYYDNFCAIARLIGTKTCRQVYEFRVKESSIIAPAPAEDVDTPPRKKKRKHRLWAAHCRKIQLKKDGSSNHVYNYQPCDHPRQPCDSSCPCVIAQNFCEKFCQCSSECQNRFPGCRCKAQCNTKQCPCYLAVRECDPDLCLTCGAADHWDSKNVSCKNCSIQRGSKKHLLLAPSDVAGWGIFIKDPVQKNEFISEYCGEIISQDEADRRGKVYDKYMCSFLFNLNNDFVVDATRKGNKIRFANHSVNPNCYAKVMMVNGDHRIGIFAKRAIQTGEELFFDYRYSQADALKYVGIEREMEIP
- Sequence (Q15022 whole entry partner): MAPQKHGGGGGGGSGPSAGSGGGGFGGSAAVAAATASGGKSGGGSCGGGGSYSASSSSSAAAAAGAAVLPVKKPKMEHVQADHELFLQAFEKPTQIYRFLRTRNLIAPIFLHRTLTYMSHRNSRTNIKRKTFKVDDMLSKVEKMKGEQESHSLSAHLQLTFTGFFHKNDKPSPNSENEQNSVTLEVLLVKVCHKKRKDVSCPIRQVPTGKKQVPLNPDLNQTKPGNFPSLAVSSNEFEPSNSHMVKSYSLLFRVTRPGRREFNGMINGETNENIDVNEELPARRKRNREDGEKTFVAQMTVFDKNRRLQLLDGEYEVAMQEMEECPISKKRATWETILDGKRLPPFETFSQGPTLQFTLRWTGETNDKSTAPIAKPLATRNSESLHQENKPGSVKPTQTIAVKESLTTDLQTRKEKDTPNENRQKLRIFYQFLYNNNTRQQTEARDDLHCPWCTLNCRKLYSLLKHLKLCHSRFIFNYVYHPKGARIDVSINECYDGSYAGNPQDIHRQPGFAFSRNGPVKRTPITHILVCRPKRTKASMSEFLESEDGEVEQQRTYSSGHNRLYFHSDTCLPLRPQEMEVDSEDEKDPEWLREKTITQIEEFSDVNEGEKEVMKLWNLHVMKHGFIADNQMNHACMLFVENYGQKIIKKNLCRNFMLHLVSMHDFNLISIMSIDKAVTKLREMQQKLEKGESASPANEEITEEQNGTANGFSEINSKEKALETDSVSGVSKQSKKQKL
- Sequence (Q09028 whole entry partner): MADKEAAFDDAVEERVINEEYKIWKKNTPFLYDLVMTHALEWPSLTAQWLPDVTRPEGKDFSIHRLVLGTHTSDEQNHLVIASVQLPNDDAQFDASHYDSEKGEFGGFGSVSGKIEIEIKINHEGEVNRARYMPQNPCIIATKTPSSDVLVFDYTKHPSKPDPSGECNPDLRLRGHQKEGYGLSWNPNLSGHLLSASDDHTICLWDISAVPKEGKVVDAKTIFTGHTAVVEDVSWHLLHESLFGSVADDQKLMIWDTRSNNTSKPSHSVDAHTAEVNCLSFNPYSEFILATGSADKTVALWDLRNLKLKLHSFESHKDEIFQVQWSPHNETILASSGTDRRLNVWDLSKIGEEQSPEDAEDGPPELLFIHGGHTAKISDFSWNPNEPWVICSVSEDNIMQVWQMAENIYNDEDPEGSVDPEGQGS
- Sequence (Q6ZN18 whole entry partner): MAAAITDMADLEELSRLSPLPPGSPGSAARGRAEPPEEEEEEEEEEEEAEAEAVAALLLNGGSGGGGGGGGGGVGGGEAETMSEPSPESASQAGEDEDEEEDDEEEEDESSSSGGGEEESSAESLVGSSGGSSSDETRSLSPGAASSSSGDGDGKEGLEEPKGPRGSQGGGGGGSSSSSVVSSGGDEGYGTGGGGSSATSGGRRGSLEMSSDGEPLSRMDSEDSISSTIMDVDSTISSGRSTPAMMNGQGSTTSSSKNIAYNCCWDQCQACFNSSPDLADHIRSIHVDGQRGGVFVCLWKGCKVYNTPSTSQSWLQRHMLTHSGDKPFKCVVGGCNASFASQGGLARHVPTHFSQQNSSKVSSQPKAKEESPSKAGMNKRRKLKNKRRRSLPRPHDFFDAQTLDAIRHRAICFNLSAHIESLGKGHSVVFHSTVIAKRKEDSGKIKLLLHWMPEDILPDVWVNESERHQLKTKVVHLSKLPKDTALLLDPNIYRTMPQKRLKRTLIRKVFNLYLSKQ
- protocolSummary: EED LC-MS assay (SAH production by PRC2)
- Format: biochemical
- conditionLabel: read-out: (b) IC50, EED LC-MS Qualified
- Procedure: Compounds of the present invention were assessed for their ability to inhibit PRC2 activity in a pentameric complex of EZH2, SUZ12, EED, Rbap48 and AEBP in biochemical assays. The ability of compounds of the present invention to inhibit cellular activity of PRC2 was assessed by analysing histone H3 lysine 27 methylation in human cell lines. […]
Collected pIC50 values appear next to each entry.
The scale used: pIC50 is minus the common logarithm of the concentration in molar units.

A selection of reference data follows.
[Q] Item COc1cccc(F)c1CNc1ccc(-c2ccncc2)c2nncn12 [Example 113] has what recorded pIC50?
[A] 6.93

[Q] Which pIC50 is listed for COc1ccccc1CNc1ccc(-c2ccc(C(=O)N3CCCC3)cc2)c2nncn12 [Example 42] ?
[A] 6.69

More entries:
[Q] If you can, please state the reported pIC50 value of COc1ccccc1CNc1ccc(-c2ccc(S(=O)(=O)C(C)C)cc2)c2nncn12 [Example 57] .
[A] 6.74

----------
- Test system: H3K27 methylation in G401 cell
- protocolSummary: ELISA (H3K27 methylation) assay in G401 cells
- Format: cell-based, human
- conditionLabel: Homo sapiens, G-401, H3K27 methylation ELISA, read-out: (c) IC50 ELISA Qualified
measurementName: log10 IC50 (log10 of the value in nM)
Scale type: logarithmic (base 10). Underlying IC50 unit: nM.

Here is how some compounds turned out for log10 IC50.
[Q] I am curious: what log10 IC50 value has been reported for `COc1ccc(-c2ccc(NCc3c(F)cccc3OC)n3cnnc23)cn1` ?
[A] 1.61

[Q] What log10 IC50 value was documented for this compound, `COc1cccc(F)c1CNc1c(F)cc(-c2cccnc2C)c2nncn12` ?
[A] 2.92

[Q] Can you share its log10 IC50? I mean this compound: `CCc1ccncc1-c1ccc(NCc2c(F)cc(F)cc2OC)n2cnnc12`
[A] 2.35

[Q] I would be grateful if you could share the reported log10 IC50 for `CCc1ncncc1-c1ccc(NCc2c(F)cccc2OC)n2cnnc12` .
[A] 1.07

[Q] // lookup log10 IC50 for `COc1cccc(F)c1CNc1ccc(-c2cc(Cl)cnc2C)c2nncn12`
[A] 1.47

Continuing:
[Q] Any idea what log10 IC50 was measured for `COc1cc(CNc2ccc(-c3cccnc3C)c3nncn23)c(F)cc1F` ?
[A] 2.05

[Q] What value of log10 IC50 has been reported for the following compound? `COc1cc(F)cc(F)c1CNc1ccc(-c2ccnn2C)c2nncn12`
[A] 0.71

[Q] Endpoint output: log10 IC50 of `COc1cccc(F)c1CNc1ccc(-c2cn(C)nc2C)c2nncn12` . Value?
[A] 1.61

[Q] Fill blank: measured log10 IC50 of the compound `CCc1ncccc1-c1ccc(NCc2c(F)cccc2OC)n2cnnc12` is ____.
[A] 1.79

[Q] So what's the measured log10 IC50 for this one? `COc1cc(F)cc(F)c1CNc1ccc(-c2cnccc2C)c2nncn12`
[A] 1.77

[Q] Value lookup for log10 IC50; key = `COc1cccc(F)c1CNc1ccc(-c2cnn(C3CCOCC3)c2)c2nncn12`
[A] 1.35

[Q] Which measured log10 IC50 value corresponds to `COc1cccc(F)c1CNc1ccc(-c2cnn(C)c2C)c2nncn12` ?
[A] 1.54
